System: Escherichia coli TOP10
Assay: shrunken log2 fold change of peptide-encoding DNA abundance (4.5 h post-induction vs induction); higher = less antimicrobial activity (less host growth inhibition)
Details: time post-induction: 4.5 h; library: site-saturation at positions 5, 18, 19, 20

# sequence-data, shrunken log2 fold change
records = [
    ("RRIRFRPPRLPRPRPRPYEMPRP", -0.412),
    ("RRIRERPPRLPRPRPRPQKIPRP", -0.12),
    ("RRIRCRPPRLPRPRPRPFCEPRP", 0.000102),
    ("RRIRWRPPRLPRPRPRPIEVPRP", 0.0279),
    ("RRIRVRPPRLPRPRPRPPDHPRP", 0.271),
    ("RRIRMRPPRLPRPRPRPHCLPRP", -0.0601),
    ("RRIRRRPPRLPRPRPRPPCHPRP", 0.761),
    ("RRIRRRPPRLPRPRPRPCDEPRP", 0.197),
]

----------
Test system: Escherichia coli TOP10
Test: shrunken log2 fold change of peptide-encoding DNA abundance (4.5 h post-induction vs induction); higher = less antimicrobial activity (less host growth inhibition)
Conditions: time post-induction: 4.5 h; library: site-saturation at positions 5, 18, 19, 20
measured-property: shrunken log2 fold change

# sequence-data, reported
records = [
    ("RRIRRRPPRLPRPRPRPNAYPRP", 0.0409),
    ("RRIRLRPPRLPRPRPRPKYCPRP", 0.0654),
    ("RRIRARPPRLPRPRPRPGNLPRP", -0.232),
    ("RRIRGRPPRLPRPRPRPVITPRP", -0.09),
    ("RRIRKRPPRLPRPRPRPKGDPRP", -0.0351),
    ("RRIRVRPPRLPRPRPRPHIMPRP", -0.339),
    ("RRIRHRPPRLPRPRPRPQKNPRP", -0.3),
    ("RRIRPRPPRLPRPRPRPQRIPRP", 0.0114),
    ("RRIRCRPPRLPRPRPRPCSFPRP", -0.57),
    ("RRIRRRPPRLPRPRPRPTLRPRP", 0.712),
    ("RRIRSRPPRLPRPRPRPRTYPRP", -0.452),
    ("RRIRWRPPRLPRPRPRPGMRPRP", 0.976),
    ("RRIRRRPPRLPRPRPRPKEIPRP", 0.205),
    ("RRIRIRPPRLPRPRPRPLARPRP", 0.346),
    ("RRIRQRPPRLPRPRPRPHQPPRP", 0.00524),
]

----------
Tested on: Escherichia coli TOP10;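 also: peptides expressed intracellularly from a pBAD plasmid library in pooled LB shake-flask culture, induced with 0.3% L-arabinose, DNA abundance read by NGS, three biological replicates, DESeq2 with apeglm shrinkage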
Experiment: shrunken log2 fold change of peptide-encoding DNA abundance (4.5 h post-induction vs induction); higher = less antimicrobial activity (less host growth inhibition)
Settings: time post-induction: 4.5 h; library: site-saturation at positions 5, 18, 19, 20

# sequence-data, target, shrunken log2 fold change
rows = [
    ("RRIRMRPPRLPRPRPRPVGKPRP", "Escherichia coli TOP10", 0.216),
    ("RRIRPRPPRLPRPRPRPKKGPRP", "Escherichia coli TOP10", -0.0676),
    ("RRIRGRPPRLPRPRPRPTGDPRP", "Escherichia coli TOP10", 0.782),
    ("RRIRDRPPRLPRPRPRPTVAPRP", "Escherichia coli TOP10", 1.14),
    ("RRIRVRPPRLPRPRPRPRIDPRP", "Escherichia coli TOP10", -0.216),
    ("RRIRPRPPRLPRPRPRPGKTPRP", "Escherichia coli TOP10", 0.294),
    ("RRIRCRPPRLPRPRPRPACQPRP", "Escherichia coli TOP10", 0.305),
    ("RRIRYRPPRLPRPRPRPLSQPRP", "Escherichia coli TOP10", 0.0967),
    ("RRIRKRPPRLPRPRPRPYDFPRP", "Escherichia coli TOP10", 0.176),
    ("RRIRGRPPRLPRPRPRPPKFPRP", "Escherichia coli TOP10", 0.0991),
    ("RRIRWRPPRLPRPRPRPWPIPRP", "Escherichia coli TOP10", 0.0793),
    ("RRIRPRPPRLPRPRPRPSLVPRP", "Escherichia coli TOP10", -0.222),
    ("RRIRWRPPRLPRPRPRPLGPPRP", "Escherichia coli TOP10", 0.478),
    ("RRIRMRPPRLPRPRPRPWLIPRP", "Escherichia coli TOP10", 0.0295),
    ("RRIRRRPPRLPRPRPRPTAKPRP", "Escherichia coli TOP10", 0.371),
]

Values were extracted from the supplement of paper PMC9112550.
